The reported numbers originate from patent US8703727B2.

# Method: Solubility of aminoflavone in DI water and 1% PVA (HPLC)
# Assay type: physicochemical
# Condition Parameters: DI water, water, thermodynamic from solid, DI water after centrifugation; read-out: Solubility
Endpoint Label: solubility at 5 min (µg/mL)

* Cc1c(F)c(N)c2c(=O)cc(-c3ccc(N)c(F)c3)oc2c1F [Sample 5, Aminoflavone] | 0.34

---

# Method: Solubility of S4 and S5 in methanol and ethanol (saturated solution, HPLC)
# Type: physicochemical
# Condition Parameters: organic solvent or mixture, thermodynamic from solid; Methanol, 25° C.
Endpoint Label: solubility at 5 min (µg/mL)

* C=CCNC1=C2C[C@@H](C)C[C@H](OC)[C@H](O)[C@@H](C)/C=C(\C)[C@H](OC(N)=O)[C@@H](OC)/C=C\C=C(/C)C(=O)NC(=CC1=O)C2=O [Sample 4] | 4260
* Cc1c(F)c(N)c2c(=O)cc(-c3ccc(N)c(F)c3)oc2c1F [Sample 5, Aminoflavone] | 280
